B1: glmS ribozyme (parent)
chain: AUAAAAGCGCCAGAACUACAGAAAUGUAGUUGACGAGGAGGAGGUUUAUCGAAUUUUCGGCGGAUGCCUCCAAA

variants of: B1; test: self-cleavage kobs at 40 uM GlcN6P; higher = faster cleavage; RNA array; conditions: with glucosamine-6-phosphate
Variants at the floor of the assay were thinned out.
Reported self-cleavage kobs at 40 uM GlcN6P is given for each of the following variants.

{"Sequence Change": "A33U G59U G62A", "self-cleavage kobs at 40 uM GlcN6P": "< 1e-05 s⁻¹"}
{"Sequence Change": "G29C C50G C61A U65C", "self-cleavage kobs at 40 uM GlcN6P": "7.48e-05 s⁻¹"}
{"Sequence Change": "U31C C50G C70U", "self-cleavage kobs at 40 uM GlcN6P": "7.5e-05 s⁻¹"}
{"Sequence Change": "A12U A53G", "self-cleavage kobs at 40 uM GlcN6P": "0.00255 s⁻¹"}

Data request: # query: self-cleavage kobs at 40 uM GlcN6P of entry C16U C34U G37U
Data returned: < 1e-05 s⁻¹

Data request: # query: self-cleavage kobs at 40 uM GlcN6P of entry A39U C71A
Data returned: 6.47e-05 s⁻¹

Data request: # query: self-cleavage kobs at 40 uM GlcN6P of entry G7A C16G
Data returned: < 1e-05 s⁻¹
